Here the recorded IC50 is given for each entry.
Tgt: SMYD3 (Homo sapiens (Human), UniProt Q9H7B4)
Sequence (Q9H7B4 whole entry): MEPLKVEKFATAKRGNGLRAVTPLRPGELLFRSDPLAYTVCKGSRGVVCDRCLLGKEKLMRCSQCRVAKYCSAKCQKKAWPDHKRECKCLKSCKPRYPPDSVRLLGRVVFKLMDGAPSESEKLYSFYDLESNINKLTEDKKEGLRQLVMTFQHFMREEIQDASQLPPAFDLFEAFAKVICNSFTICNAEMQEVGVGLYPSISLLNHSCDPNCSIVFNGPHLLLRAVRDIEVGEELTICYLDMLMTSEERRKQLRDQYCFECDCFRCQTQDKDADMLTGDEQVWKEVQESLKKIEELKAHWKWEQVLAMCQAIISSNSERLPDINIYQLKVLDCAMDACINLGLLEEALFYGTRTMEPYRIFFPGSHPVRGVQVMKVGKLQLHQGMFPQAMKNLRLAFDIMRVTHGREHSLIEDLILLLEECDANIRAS
Assay Details: SMYD3 biochemical assay (SMYD3 enzyme assay on MEKK2 protein substrate, 3H-SAM scintillation proximity assay)
Experimental Setup: read-out: SMYD3 Biochem IC50

>  <Compound>
CC(NC(=O)Cc1ccc(F)cc1)C1CCN(C(=O)[C@H](C)N)CC1 (stereo partly drawn)

>  <IC50>
> 100 µM

$$$$
>  <Compound>
Cc1ccncc1C(=O)NC(C)C1CCN(C(=O)[C@H](C)N)CC1 (stereo partly drawn)

>  <IC50>
73.4 µM

$$$$
>  <Compound>
CC(NC(=O)/C=C/c1c[nH]cn1)C1CCN(C(=O)[C@H](C)N)CC1 (stereo partly drawn)

>  <IC50>
> 100 µM

$$$$
>  <Compound>
N[C@H]1CC[C@H](NC(=O)c2ncccn2)CC1

>  <IC50>
> 100 µM

$$$$

The recorded IC50 for entry NCCC(=O)N[C@H]1CC[C@H](NC(=O)c2nc3ccccc3[nH]2)CC1 equals 86.6 µM

For record NCCC(=O)N[C@H]1CC[C@H](NC(=O)c2cccc(N)n2)CC1 the listed IC50 is > 100 µM

Lab book: IC50 of N[C@H]1CC[C@H](NC(=O)c2nc3ccccc3s2)CC1 noted as > 100 µM

Query COc1cccc(C(=O)N[C@H]2CC[C@H](NC(=O)CCN)CC2)n1 yields IC50 of > 100 µM

----------
Tgt: SMYD3 (Homo sapiens (Human))
Assay Details: SMYD3 biochemical assay (SMYD3 enzyme assay on MEKK2 protein substrate, 3H-SAM scintillation proximity assay)
Experimental Setup: read-out: SMYD3 Biochem IC50 (μM)*
Measurement Kind: IC50 (µM)
Number in µM, nothing else.

Solved entries:
>  <Compound>
CCOC(=O)C(NC(=O)c1ccc2c(c1)CC(=O)N2)C1CCNCC1 (stereo not drawn)

>  <IC50, µM>
42.3

$$$$
>  <Compound>
COc1ccc2cc(C(C)C(=O)N[C@H]3CC[C@H](N)CC3)ccc2c1 (stereo partly drawn)

>  <IC50, µM>
76.4

$$$$
>  <Compound>
CCn1nc(C)cc1C(=O)NC(c1ccccc1)C1CCNCC1 (stereo not drawn)

>  <IC50, µM>
69.2

$$$$
>  <Compound>
N[C@H]1CC[C@H](NC(=O)c2cccc(CO)c2)CC1

>  <IC50, µM>
86

$$$$
>  <Compound>
CN1C(=O)Cc2cc(C(=O)N[C@H]3CC[C@H](N)CC3)ccc21

>  <IC50, µM>
16.7

$$$$

Let me check: CCc1cc(C(=O)N[C@H]2CC[C@H](N)CC2)ns1 , system SMYD3 (Homo sapiens (Human)), measured IC50 is 13.5

Per the reported SMYD3 (Homo sapiens (Human)) data, N[C@H]1CC[C@H](NC(=O)c2ccc3nc(O)ccc3c2)CC1 has IC50 of 115

Bench note, SMYD3 (Homo sapiens (Human)): NCCC(=O)N[C@H]1CC[C@H](NC(=O)c2ccc(-c3ccccc3)cc2)CC1 , IC50 reads 37.3

----------
Property: pIC50; scope: individual molecules
Tgt: SMYD3 (Homo sapiens (Human), UniProt Q9H7B4)
Assay Details: SMYD3 biochemical assay (SMYD3 enzyme assay on MEKK2 protein substrate, 3H-SAM scintillation proximity assay)
Experimental Setup: read-out: SMYD3 Biochem IC50
pIC50: −log10 of the molar value.

>  <Molecule>
N[C@H]1CC[C@H](NC(=O)c2noc(C3CC3)n2)CC1 [compound 484]

>  <Tgt>
SMYD3 (Homo sapiens (Human), UniProt Q9H7B4)

>  <pIC50>
4.07

$$$$
>  <Molecule>
N[C@H]1CC[C@H](NC(=O)c2cccc(F)n2)CC1 [compound 389]

>  <Tgt>
SMYD3 (Homo sapiens (Human), UniProt Q9H7B4)

>  <pIC50>
< 4.00

$$$$
>  <Molecule>
N[C@H]1CC[C@H](NC(=O)CCCn2ccnc2)CC1 [compound 333]

>  <Tgt>
SMYD3 (Homo sapiens (Human), UniProt Q9H7B4)

>  <pIC50>
< 4.00

$$$$
>  <Molecule>
O=C1Cc2cc(C(=O)N[C@H]3C[C@H]4CC[C@@H](C3)N4S(=O)(=O)CCN3CCCC3)ccc2N1 [compound 615]

>  <Tgt>
SMYD3 (Homo sapiens (Human), UniProt Q9H7B4)

>  <pIC50>
7.30

$$$$
>  <Molecule>
Cc1cc(C(=O)N[C@H]2CC[C@H](N)CC2)ccn1 [compound 394]

>  <Tgt>
SMYD3 (Homo sapiens (Human), UniProt Q9H7B4)

>  <pIC50>
< 4.00

$$$$

Please fill in: pIC50 reported for CC(NC(=O)c1cccc(F)n1)C1CCN(C(=O)[C@H](C)N)CC1 (stereo partly drawn) [compound 265] = < 4.00

Field pIC50 (entry Cc1ccc(C(=O)NC(C)C2CCN(C(=O)[C@H](C)N)CC2)cn1 (stereo partly drawn) [compound 257] ) reads < 4.00

pIC50 in this record for CC(NC(=O)c1ccc(O)cn1)C1CCN(C(=O)[C@H](C)N)CC1 (stereo partly drawn) [compound 310] : < 4.00

What the record says about NCCC(=O)N[C@H]1CC[C@H](NC(=O)c2cccc3c2OC(F)(F)O3)CC1 [compound 440] : pIC50 is < 4.00

----------
pIC50 listing for selected compounds.
Tgt: UniProtKB Q9H7B4
Assay Details: SMYD3 biochemical assay (SMYD3 enzyme assay on MEKK2 protein substrate, 3H-SAM scintillation proximity assay)
Experimental Setup: read-out: SMYD3 Biochem IC50
pIC50: −log10 of the molar value.

Before answering, review these 4 worked examples.
>  <Compound>
CC(NC(=O)c1cccc2c1OC(F)(F)O2)C1CCN(C(=O)[C@H](C)N)CC1 (some centres unmarked) [compound 266]

>  <Observed Result>
< 4.00

$$$$
>  <Compound>
N[C@H]1CC[C@H](NC(=O)C2=NNC(=O)CC2)CC1 [compound 424]

>  <Observed Result>
< 4.00

$$$$
>  <Compound>
CC(NC(=O)Cc1ccc2c(c1)CC(=O)N2)C1CCN(C(=O)[C@H](C)N)CC1 (some centres unmarked) [compound 466]

>  <Observed Result>
4.22

$$$$
>  <Compound>
Cc1ncc(C(=O)N[C@H]2CC[C@H](N)CC2)cn1 [compound 320]

>  <Observed Result>
< 4.00

$$$$

Now take the following compound into account.
Lab note: CC(NC(=O)c1ccc(-n2cnnc2)cc1)C1CCN(C(=O)[C@H](C)N)CC1 (some centres unmarked) [compound 226] gave pIC50 of < 4.00

----------
The following compounds are listed with their measured IC50 values.
Tgt: SMYD3 (Homo sapiens (Human))
Assay Details: SMYD3 biochemical assay (SMYD3 enzyme assay on MEKK2 protein substrate, 3H-SAM scintillation proximity assay)
Experimental Setup: read-out: SMYD3 Biochem IC50
Give the quantity in µM, number only.

>  <Compound>
CC(NC(=O)c1cc2cc(F)ccc2[nH]1)C1CCN(C(=O)[C@H](C)N)CC1 (some centres unmarked)

>  <Tgt>
SMYD3 (Homo sapiens (Human))

>  <Measurement Kind>
IC50

>  <Unit Spec>
µM

>  <Observed Result>
41.7

$$$$
>  <Compound>
Cc1cncc(C(=O)N[C@H]2CC[C@H](N)CC2)c1

>  <Tgt>
SMYD3 (Homo sapiens (Human))

>  <Measurement Kind>
IC50

>  <Unit Spec>
µM

>  <Observed Result>
50.7

$$$$
>  <Compound>
NCCC(=O)N[C@H]1CC[C@H](NC(=O)c2ccc3ncsc3c2)CC1

>  <Tgt>
SMYD3 (Homo sapiens (Human))

>  <Measurement Kind>
IC50

>  <Unit Spec>
µM

>  <Observed Result>
29

$$$$

# ---- query compound ----
Fill in: SMYD3 (Homo sapiens (Human)) IC50 for CN1CCC(CS(=O)(=O)N2[C@@H]3CC[C@H]2C[C@@H](NC(=O)c2ccc4c(c2)CC(=O)N4)C3)CC1 = 0.00067

----------
Tgt: SMYD2 (Homo sapiens (Human), UniProt Q9NRG4)
Sequence (Q9NRG4 whole entry): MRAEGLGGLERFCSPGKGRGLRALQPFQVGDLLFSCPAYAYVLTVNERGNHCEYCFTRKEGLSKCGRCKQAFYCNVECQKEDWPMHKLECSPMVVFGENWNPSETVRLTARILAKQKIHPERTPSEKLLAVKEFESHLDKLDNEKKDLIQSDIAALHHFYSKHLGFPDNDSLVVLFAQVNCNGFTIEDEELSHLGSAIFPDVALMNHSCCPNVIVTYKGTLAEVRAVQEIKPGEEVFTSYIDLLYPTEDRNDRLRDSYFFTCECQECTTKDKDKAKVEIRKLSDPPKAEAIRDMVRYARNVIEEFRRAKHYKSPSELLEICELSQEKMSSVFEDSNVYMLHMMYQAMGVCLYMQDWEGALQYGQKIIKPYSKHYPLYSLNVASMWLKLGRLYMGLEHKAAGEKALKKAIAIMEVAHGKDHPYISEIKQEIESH
Assay Details: SMYD2 biochemical assay (SMYD2 enzyme assay on peptide substrate, 3H-SAM Flashplate)
A collection of molecules and their measured IC50
Remember to put the unit after the number in your answer.

Use these answered entries as a reference point.
>  <Molecule>
C[C@H](c1cccc(OCCO)c1Cl)N1CC(NC(=O)c2cn(C3CC3)nn2)C1 (single isomer, unassigned)

>  <IC50>
14.3 µM

$$$$
>  <Molecule>
C[C@H](c1ccccc1)N1C[C@@H](NC(=O)c2cn(C3CC3)nn2)C1(C)C (racemic)

>  <IC50>
18.9 µM

$$$$

Next:
Entry C[C@@H](c1ccccc1)N1C[C@@H](NC(=O)c2cn(C3CC3)nn2)C1(C)C (racemic) — recorded IC50 = 0.91 µM
